Origin of values: patent US20250179059A1

Provide the reported IC50 of each item.
# Tested system: human BRD4 bromodomain II (Homo sapiens)
# Construct: human BRD4 bromodomain II [based on Genbank NM_058243, residues 349-460]; host or cells: E. coli
# Protocol: Bromodomain binding assay (AlphaScreen), BRD4 BDII
# Measurement context: AlphaScreen assay, Table C2; read-out: BRD4 BDII IC50

// worked examples, IC50 included
| Molecule | IC50 |
| --- | --- |
| Cn1ccn(-c2ccc(-c3cc(F)cc(-c4cc(N5CC6CC5CN6)c5cn[nH]c5c4)c3O)cc2Cl)c1=O (centres unmarked) | 1 to 10 nM |
| Cn1ccn(-c2ccc(-c3cc(F)cc(-c4ccnc(N5CCC6(CCCO6)C5)c4)c3O)cc2Cl)c1=O (centres unmarked) | 0.01 to 1 nM |
| CCOc1ccc(-c2cccc(-c3ccc(NC(C)=O)c(F)c3)c2O)cc1 | > 100 nM |
| CC(=O)Nc1ccc(-c2cccc(-c3nnc(N4CCNCC4)[nH]3)c2O)cc1F | > 100 nM |
| CC(=O)Nc1ccc(-c2cccc(-c3ccc(NC(C)=O)c(F)c3)c2O)cc1F | > 100 nM |
| Cn1ccn(-c2ccc(-c3cc(F)cc(-c4cc(N5CCNCC5)c5cc[nH]c5c4)c3O)cc2Cl)c1=O | 1 to 10 nM |

Batch lookup, IC50 per entry.
1. CN1CCN(c2ccc(-c3cc(F)cc(-c4cc(N5CC[C@H](N)C5)c(=O)n(C)c4)c3O)cc2Cl)C1=O
2. CN1CCN(c2ccc(-c3cccc(-c4ccnc(N5CC6(CNC6)C5)c4)c3O)cc2Cl)C1=O

1. 1 to 10 nM
2. 1 to 10 nM

* * *

Provide the reported GI50 of each item.
# Tested on: human SKM-1 acute myeloid leukemia cells
# Protocol: SKM-1 antiproliferation cell-based assay (ATPlite)
# Measurement context: Homo sapiens, SKM-1, 96 h, SKM-1 antiproliferation assay, 4 days, Table C2

// worked examples, GI50 included
| Molecule | Tested system | Value measured |
| --- | --- | --- |
| Cn1ccn(-c2ccc(-c3cc(F)cc(-c4ccnc(N5CCN6C(=O)OCCC6C5)c4)c3O)cc2Cl)c1=O (stereo not shown) [Example 675] | human SKM-1 acute myeloid leukemia cells | 30 to 300 nM |
| C[C@@H]1CN(c2cc(-c3cccc(-c4ccc(N5CCCC5=O)c(Cl)c4)c3O)ccn2)CCN1 [Example 253] | human SKM-1 acute myeloid leukemia cells | 300 to 3000 nM |
| Cn1ccn(-c2ccc(-c3cc(F)cc(-c4cncc(N5CCNCC5)c4)c3O)cc2Cl)c1=O [Example 472] | human SKM-1 acute myeloid leukemia cells | 0.3 to 30 nM |

Batch lookup, GI50 per entry.
1. CN1CCN(c2ccc(-c3cccc(-c4ccnc(N5CC6(CNC6)C5)c4)c3O)cc2F)C1=O [Example 322]
2. CC(C)N1CCN(c2cc(-c3cc(F)cc(-c4ccc(-n5ccn(C)c5=O)c(Cl)c4)c3O)cc(=O)n2C)CC1 [Example 717]
3. Cn1ccn(-c2ccc(-c3cc(F)cc(-c4cnc(Cl)c(N5CCN(C(C)(C)C)CC5)c4)c3O)cc2Cl)c1=O [Example 789]
4. Cn1ccn(-c2c(Cl)cc(-c3cc(F)cc(-c4ccnc(N5CCNCC5)c4)c3O)cc2C#N)c1=O [Example 448]

1: 30 to 300 nM; 2: 0.3 to 30 nM; 3: 0.3 to 30 nM; 4: 300 to 3000 nM
